Data credit: the supplement of paper PMC12783771

B1: library; numbered along this chain (parent)
chain: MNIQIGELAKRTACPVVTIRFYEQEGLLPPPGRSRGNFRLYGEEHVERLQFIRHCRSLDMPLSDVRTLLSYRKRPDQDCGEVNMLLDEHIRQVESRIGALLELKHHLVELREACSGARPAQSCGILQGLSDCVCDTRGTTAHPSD

Variants of: B1
TEST_PROTOCOL: sfGFP reporter fluorescence (15 h) (µM FITC); higher = higher leak
TEST_SETTINGS: library round: Round 0; ligand: none
Rule: label 1 for sfGFP reporter fluorescence not less than 0.06, label 0 for anything less.

Observe how each entry below is paired with its result.
Entry `D64Q` : is its sfGFP reporter fluorescence no less than 0.06?
label 0

Follow-up item: `L27N`
label 1

Follow-up item: `G42A`
label 1

Follow-up item: `Y22K`
label 1

Follow-up item: `L110R`
label 0

---
Entry `L58K` : is its sfGFP reporter fluorescence no less than 0.06?
label 1

Follow-up item: `V108P`
label 0

Follow-up item: `L68D`
label 1

Follow-up item: `Y22H`
label 1
